Values were extracted from ChEMBL document CHEMBL4196196.

Molecular target: Butyrophilin subfamily 3 member A1 (Homo sapiens)
Sequence (O00481 30-513 limits assumed): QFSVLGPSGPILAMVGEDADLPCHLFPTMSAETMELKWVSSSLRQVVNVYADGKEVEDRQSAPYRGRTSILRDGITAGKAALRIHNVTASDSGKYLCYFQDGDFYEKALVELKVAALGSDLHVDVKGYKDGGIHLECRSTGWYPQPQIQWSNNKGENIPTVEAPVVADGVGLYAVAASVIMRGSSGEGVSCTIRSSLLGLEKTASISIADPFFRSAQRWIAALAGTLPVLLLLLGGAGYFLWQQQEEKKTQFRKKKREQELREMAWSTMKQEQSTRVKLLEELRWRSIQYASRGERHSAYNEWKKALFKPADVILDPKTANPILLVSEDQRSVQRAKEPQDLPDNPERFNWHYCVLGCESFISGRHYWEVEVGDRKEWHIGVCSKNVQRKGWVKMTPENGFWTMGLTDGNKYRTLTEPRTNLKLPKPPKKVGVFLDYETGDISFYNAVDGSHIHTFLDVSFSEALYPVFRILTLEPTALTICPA
Assay: Binding affinity to BTN3A1 in human PBMC assessed as stimulation of Vgamma9 Vdelta2 T cells at 100 nM incubated for 3 days and measured after 11 days post compound removal by flow cytometry relative to (E)-dimethyl 5-hydroxy-4-methylpent-3-enylphosphonate
Kindly apply the following: YES if Ratio EC50 is less than 10, NO in every other case.

compound="C/C(=C\\CCP(=O)(NCC(=O)OC(C)C)Oc1ccccc1)CO (stereo not drawn)" tested_on="Butyrophilin subfamily 3 member A1 (Homo sapiens)" class_name=YES
compound="COC(=O)CNP(=O)(CC/C=C(\\C)CO)Oc1ccc2ccccc2c1 (stereo not drawn)" tested_on="Butyrophilin subfamily 3 member A1 (Homo sapiens)" class_name=YES
compound="C/C(=C\\CCP(=O)(NCC(=O)OC(C)C)Oc1cccc2ccccc12)CO (stereo not drawn)" tested_on="Butyrophilin subfamily 3 member A1 (Homo sapiens)" class_name=NO
compound="COC(=O)CNP(=O)(CC/C=C(\\C)CO)Oc1cccc2ccccc12 (stereo not drawn)" tested_on="Butyrophilin subfamily 3 member A1 (Homo sapiens)" class_name=NO
compound="C/C(=C\\CCP(=O)(NCC(=O)OC(C)C)Oc1ccc2ccccc2c1)CO (stereo not drawn)" tested_on="Butyrophilin subfamily 3 member A1 (Homo sapiens)" class_name=YES
compound="COC(=O)CNP(=O)(CC/C=C(\\C)CO)Oc1ccccc1 (stereo not drawn)" tested_on="Butyrophilin subfamily 3 member A1 (Homo sapiens)" class_name=YES
compound="CCOC(=O)CNP(=O)(CC/C=C(\\C)CO)Oc1cccc2ccccc12 (stereo not drawn)" tested_on="Butyrophilin subfamily 3 member A1 (Homo sapiens)" class_name=NO
